assay: gradient 5% acetonitrile 3 min, to 50% in 2 min, to 85% in 15 min, held 3 min, 100 µL/min; conditions: column: Zorbax Extend-C18 2.1 x 50 mm; eluents: water / acetonitrile, 0.1% formic acid
Hi there, I'd appreciate the recorded RP-LC retention time for every entry that follows.
Give just the numeric value; s need not be written.

Prompt: Supply reported RP-LC retention time belonging to this compound: "O=C(CSc1ncnc2c1[nH]c1ccc(Br)cc12)NC1CCCCC1"
Completion: 957

Prompt: Supply reported RP-LC retention time belonging to this compound: O=C(NCc1ccc(F)cc1)C1CCCN(C(=O)C2Sc3ccccc3NC2=O)C1 (centres undefined)
Completion: 759

Prompt: Supply reported RP-LC retention time belonging to this compound: "O=C1COc2ccc(Cl)cc2N1Cc1nc(-c2ccc(-c3csc(C4CC4)n3)cc2)no1"
Completion: 1310

Prompt: Supply reported RP-LC retention time belonging to this compound: "CCn1cc(-c2nc(CC(=O)NCc3ccc(C)cc3)cs2)c2cccnc21"
Completion: 912

Prompt: Supply reported RP-LC retention time belonging to this compound: "Cc1nc(-c2ccc(N3CCN(C(=O)c4ccc(Br)o4)CC3)cc2)no1"
Completion: 912

Prompt: Supply reported RP-LC retention time belonging to this compound: "Cn1ncc2c(Nc3ccc(O)cc3)nc(Cl)nc21"
Completion: 731

Prompt: Supply reported RP-LC retention time belonging to this compound: O=C(CN(CC1CCCO1)C(=O)c1cccc(Br)c1)N1CCNCC1 (centres undefined)
Completion: 602

Prompt: Supply reported RP-LC retention time belonging to this compound: COCCN1C(=O)c2ccccc2C(C(=O)N2CCN(c3ccccn3)CC2)C1c1cccs1 (centres undefined)
Completion: 621

Prompt: Supply reported RP-LC retention time belonging to this compound: "O=C(Nc1ccc(-n2cnnn2)cc1)c1ccc(OCc2nc(C3CC3)cs2)cc1"
Completion: 823

Reference source: the METLIN SMRT retention time set (Domingo-Almenara et al. 2019)
